Biological target: CD47 on HL60 cells (UniProt Q08722 19-323, limits assumed)
Experiment: cell-based or functional assay
ENDPOINT: rate of phagocytosis, antibody 10 µg/mL (%)
One number for each entry, in %.

Example entries begin here.
BINDER	UNIT LABEL	rate of phagocytosis, antibody 10 µg/mL
hz3F10-5.1 (antibody, human IgG4 S228P, kappa, V domains shown, humanized 3F10, full-length heavy and light chains) VH: QVQLVQSGAEVKKPGSSVKVSCKASGYTFSRYWIEWVRQAPGQGLEWMGEFIPGSDTTNYAQKFQGRVTITADISTSTAYMELSSLRSEDTAVYYCARGGLRRMDYWGQGTLVTVSS VL: DIQMTQSPSSLSASVGDRVTITCRASSSVSSTYLHWYQQKPGKAPKLWIYTTSTLASGVPSRFSGSGSGTSYTLTISSLQPEDFATYYCQQFSDSTWTFGQGTKLEIKR	%	58.5
hz14A9-2.3 (antibody, human IgG4 S228P, kappa, V domains shown, humanized 14A9, full-length heavy and light chains) VH: QVQLVQSGAEVKKPGASVKVSCKVSGFNIEDDYIEWVRQAPGQGLEWMGRIDPANDKTKYAQKFQGRVTMTGDTSTNTVYMELSSLRSEDTAVYYCARPGLRRYYSMDYWGQGTLVTVSS VL: DIQMTQSPSSLSASVGDRVTITCKASENVVSYVSWYQQKPGKAPKLLIYGASNRYTGVPSRFIGSGSSTDFTLTISSLQPEDFATYYCGQSYSYPLTFGQGTKLEIKR	%	74.9
hz3F10-2.1 (antibody, human IgG4 S228P, kappa, V domains shown, humanized 3F10, full-length heavy and light chains) VH: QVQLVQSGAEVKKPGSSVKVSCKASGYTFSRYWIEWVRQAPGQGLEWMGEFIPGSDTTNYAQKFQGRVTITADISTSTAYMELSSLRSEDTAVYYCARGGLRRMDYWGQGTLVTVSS VL: DIQMTQSPSSLSASVGDRVTITCRASSSVSSTYLHWYQQKPGKAPKLLIYTTSTLASGVPSRFSGSGSGTDFTLTISSLQPEDFATYYCQQFSESTWTFGQGTKLEIKR	%	55.2

Next item in the queue.
Q: Suppose we examine the binder hz3F10-4.2 (antibody, human IgG4 S228P, kappa, V domains shown, humanized 3F10, full-length heavy and light chains) VH: QVQLVQSGAEVKKPGSSVKVSCKASGYTFSRYWIEWVRQAPGQGLEWMGEFIPGSDTTNYAQKFQGRVTITAEISTNTAYMELSSLRSEDTAVYYCARGGLRRMDYWGQGTLVTVSS VL: DIQMTQSPSSLSASVGDRVTITCRASSSVSSTYLHWYQQKPGKAPKLLIYTTSTLASGVPSRFSGSGSGTSYTLTISSLQPEDFATYYCQQFSESTWTFGQGTKLEIKR ; what rate of phagocytosis, antibody 10 µg/mL value has been reported?
Ans: 31.7
